The binders listed here are annotated with their Anti-CD28 Fab signal in the presence of CD28.
# tested on: T1, Anti-CD28 Fab (SEQ ID NOs: 696, 697)
# T1 construct: In the phage ELISA the Fab was biotinylated and captured on neutravidin coated plates
# T1 sequence (VH, as listed by the source, chain 1 of 2): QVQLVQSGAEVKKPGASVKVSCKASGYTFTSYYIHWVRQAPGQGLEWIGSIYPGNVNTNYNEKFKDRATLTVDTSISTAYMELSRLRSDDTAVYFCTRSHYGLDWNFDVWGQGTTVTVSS
# T1 sequence (VL, as listed by the source, chain 2 of 2): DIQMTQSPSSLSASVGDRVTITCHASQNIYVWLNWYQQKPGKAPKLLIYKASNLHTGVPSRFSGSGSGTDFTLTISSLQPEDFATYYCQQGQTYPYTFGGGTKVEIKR
# measurement notes: phage binding ELISA; Fab-coated wells pre-incubated with CD28 antigen as competitor;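 further: clonal phage supernatants added to wells preincubated with CD28 antigen or blocking buffer only, bound phage detected with HRP-conjugated anti-M13 antibody, buffer-only wells as control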
Where no end group is shown, it is not given here.
quantity measured: Anti-CD28 Fab signal in the presence of CD28

binder	recorded value
TCSAGAMYPWPWCV (peptide, not shown: large carriers, cysteine pairing not given here; also: fused to phage pIII protein, pIII and linker not given here, Clonal phage of the Peptide-92 optimisation library, tested as crude phage supernatant) [Phage-1478]	0.08
RCRAGFSYNWPYCM (peptide, not shown: large carriers, Clonal phage of the Peptide-92 optimisation library, tested as crude phage supernatant) [Phage-1488]	0.06
TCAAGAHYAWPECF (peptide, not shown: large carriers, Clonal phage of the Peptide-92 optimisation library, tested as crude phage supernatant) [Phage-1487]	0.06
TCAAGAAWPWPHCL (peptide, not shown: large carriers, cysteine pairing not given here; also: displayed as fusion to phage pIII, pIII and linker not given here, Clonal phage of the Peptide-92 optimisation library, tested as crude phage supernatant) [Phage-1482]	0.06
TCAAGAVWGWPLCF (peptide, not shown: large carriers, Clonal phage of the Peptide-92 optimisation library, tested as crude phage supernatant) [Phage-1486]	0.06
GCAAGFHYPWPLCL (peptide, not shown: large carriers, cysteine pairing not given here; also: displayed as fusion to phage pIII, pIII and linker not given here, Clonal phage of the Peptide-92 optimisation library, tested as crude phage supernatant) [Phage-1480]	0.08
LCEEFFHYSWPVCL (peptide, not shown: large carriers, cysteine pairing not given here; also: displayed as fusion to phage pIII, pIII and linker not given here, Clonal phage of the Peptide-92 optimisation library, tested as crude phage supernatant) [Phage-1481]	0.06
WCAAVFSYSWPLCL (peptide, not shown: large carriers, cysteine pairing not given here; also: displayed as fusion to phage pIII, pIII and linker not given here, Clonal phage of the Peptide-92 optimisation library, tested as crude phage supernatant) [Phage-1479]	0.06
TCAAGATYPWPSCL (peptide, not shown: large carriers, Clonal phage of the Peptide-92 optimisation library, tested as crude phage supernatant) [Phage-1485]	0.05
QCAAGAMWTWPACF (peptide, not shown: large carriers, Clonal phage of the Peptide-92 optimisation library, tested as crude phage supernatant) [Phage-1483]	0.07
WCAAGATWPWPLCI (peptide, not shown: large carriers, Clonal phage of the Peptide-92 optimisation library, tested as crude phage supernatant) [Phage-1489]	0.17
